B1: SLC22A15 (parent)
chain: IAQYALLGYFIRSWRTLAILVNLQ

# Variants of: B1
# ASSAY OVERVIEW: protein stability index of a GFP-peptide fusion (GPS, HEK-293T) (PSI 1-6); higher = more stable;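 further: lentivirally expressed fusions sorted by FACS into six bins by GFP to DsRed ratio, PSI derived from sequencing read proportions per bin multiplied by bin number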
# CONDITION NOTES: c terminus: a fixed tail appended
Task for the reader: assign each of the following variants its reported protein stability index.
Returns: the value as a bare number; no unit string appended.

Looking for the measured protein stability index of `S13V` , can you help?
2.11

Looking for the measured protein stability index of `V21E` , can you help?
2.14

Looking for the measured protein stability index of `A18F` , can you help?
3.68

Looking for the measured protein stability index of `R12C` , can you help?
2.67

Looking for the measured protein stability index of `I19H` , can you help?
3.34

Looking for the measured protein stability index of `W14I` , can you help?
3.04

Looking for the measured protein stability index of `L23H` , can you help?
2.81

Looking for the measured protein stability index of `L17P` , can you help?
2.05

Looking for the measured protein stability index of `L6G` , can you help?
4.36

Looking for the measured protein stability index of `W14E` , can you help?
1.91

Looking for the measured protein stability index of `Q24S` , can you help?
2.34

Looking for the measured protein stability index of `L7M` , can you help?
2.97

Looking for the measured protein stability index of `I1P` , can you help?
1.52

Looking for the measured protein stability index of `L6P` , can you help?
2.95

Looking for the measured protein stability index of `L17R` , can you help?
1.98

Looking for the measured protein stability index of `W14M` , can you help?
2.62

Looking for the measured protein stability index of `S13M` , can you help?
3.12

Looking for the measured protein stability index of `L20A` , can you help?
3.21

Looking for the measured protein stability index of `V21L` , can you help?
3.19

Looking for the measured protein stability index of `S13G` , can you help?
2.4

Looking for the measured protein stability index of `L23Y` , can you help?
3.34

Looking for the measured protein stability index of `S13F` , can you help?
2.29

Looking for the measured protein stability index of `W14K` , can you help?
1.79

Looking for the measured protein stability index of `L17H` , can you help?
3.02

Looking for the measured protein stability index of `A2S` , can you help?
2.1

Looking for the measured protein stability index of `L20V` , can you help?
2.1

Looking for the measured protein stability index of `L23R` , can you help?
2.6

Looking for the measured protein stability index of `W14F` , can you help?
2.86

Looking for the measured protein stability index of `F10P` , can you help?
2.24

Looking for the measured protein stability index of `A5I` , can you help?
2.52

Looking for the measured protein stability index of `I19S` , can you help?
1.99

Looking for the measured protein stability index of `I11K` , can you help?
3.38

Looking for the measured protein stability index of `L17Y` , can you help?
2.18
